system: Wild type; experiment: S. aureus survival, RN4220 and DeltatarO strains – OD600, teichoic acid synthesis inhibitors, primary screen (AID 463173); settings: S. aureus RN4220 wild type/DeltatarO growth, OD600, 18 h, screened at 18.75 µg/mL (by protocol)
Hit rate of the full screen: of about 52,000 compounds, about 1,700 (3.3%) were called active. No stated cut-off is given here; in the data, active means survival mostly below about 52% (no sharp cut-off); inactive means mostly above about 56%. Only a selection was taken, and actives are over-represented in it overall.
Bench note: report the call from active, inactive

Short answer needed: outcome of this test for `COc1ccc(CCNc2nc(-c3ccc(Cl)cc3)cc(C(F)(F)F)n2)cc1OC` ?
active

What about `Cc1ccc(CCNC(=O)Cn2c(-c3cccs3)cc3ccccc32)cc1` ?
inactive

Also `COc1ccc(CCNc2nc(-c3ccc(F)cc3)cc(C(F)(F)F)n2)cc1OC` ?
inactive

And the next one, `COc1ccc(-c2cc(C(F)(F)F)nc(SCC(=O)NCCc3ccc(OC)c(OC)c3)n2)cc1` ?
inactive

Then `COc1ccc(CCNc2nc(-c3ccc(C)cc3)cc(C(F)F)n2)cc1OC` ?
inactive

What do you have for Cc1ccc(C)n1-c1nnc(N2CCCC(C(=O)NCc3cccc(F)c3)C2)s1 (stereo not given) ?
inactive

Would you kindly repeat that for `COc1ccc(CCNc2nc(-c3ccc(OC)c(OC)c3)cc(C(F)(F)F)n2)cc1OC` ?
active

Next compound up: `COc1ccc(CCNc2nc(-c3ccccc3OC)cc(C(F)(F)F)n2)cc1OC`
active

Input `O=C(NCCCN1CCN(c2ccc(F)cc2)CC1)c1cnn(-c2ccc(F)cc2)c1-n1cccc1`
inactive

Moving on to the next compound: `COc1ccc(CCNc2nc3c(-c4cccc(C(F)(F)F)c4)nnn3c3ccccc23)cc1OC`
inactive

----------
test system: Wild type; test: S. aureus survival, RN4220 and DeltatarO strains – OD600, teichoic acid synthesis inhibitors, primary screen (AID 463173); conditions: S. aureus RN4220 wild type/DeltatarO growth, OD600, 18 h, active compounds read low, screened at 18.75 µg/mL (by protocol)
About 1,700 (3.3%) of roughly 52,000 compounds were called active. The list comes from a sample in which actives are over-represented; it also holds close analogues and randomly drawn compounds.
Quantity kind: survival

Look at this compound and give its reported survival. `CCOc1ccc(CNC(=O)CCC(=O)N2Cc3ccccc3Oc3ncccc32)cc1`
0% (active)

Again, but for `Cc1ccc(NC(=O)CCC(=O)N2Cc3ccccc3Oc3ncccc32)cc1Cl`
82% (inactive)

Another compound to look at: `Cc1ccc(-c2nc(CCNC(=O)C(=O)Nc3ccc(C)c(Cl)c3)cs2)cc1`
47% (inactive)

And the next one, `Cc1ccc(-c2nn(CC(=O)NC3CCCCC3)c3c2cnc2ccccc23)cc1` ?
75% (inactive)

Try `Cc1ccc(NC(=O)CCC(=O)N2Cc3ccccc3Oc3ncccc32)cc1` next.
22% (inactive)

Let us now turn to `Cc1cccc(NC(=O)C(=O)NCCc2csc(-c3ccc(F)cc3)n2)c1C`
75% (inactive)

Entry to check: `Cc1ccc(CN2CCC(CNc3ncnc4onc(-c5ccc(Cl)cc5)c34)CC2)cc1`
77% (inactive)

Please do the same for `Cc1cc(C)c(NC(=O)C(=O)NCCc2csc(-c3ccc(F)cc3)n2)c(C)c1` as well.
76% (inactive)

What do you have for `Fc1ccc(-c2noc3ncnc(NCC4CCN(Cc5ccc(Cl)cc5)CC4)c23)cc1` ?
81% (inactive)

Query `Cc1ccc(CNC(=O)CCC(=O)N2Cc3ccccc3Oc3ncccc32)cc1` next
73% (inactive)

----------
system: Wild type; experiment: S. aureus survival, RN4220 and DeltatarO strains – OD600, teichoic acid synthesis inhibitors, primary screen (AID 463173); settings: S. aureus RN4220 wild type/DeltatarO growth, OD600, 18 h, active compounds read low, screened at 18.75 µg/mL (by protocol)
Hit rate of the full screen: of about 52,000 compounds, about 1,700 (3.3%) were called active. Many of the other results were omitted from the sample, so actives are more common in it than they were.
Task for the reader: assign each of the following compounds its reported survival.
Write it as a number; the unit % goes unstated.

Form field: reported survival of `C=C(C)CSc1nc2sc3c(c2c(=O)n1CCCC)CCCC3`
0

Would you mind doing `NC(=O)CSc1oc(-c2ccco2)nc1S(=O)(=O)c1ccc(Cl)cc1` as well?
68

Queued: `COc1ccccc1NC(=O)c1ccc(C)o1`
104

And then `Cc1ccc(C(=O)N2CCC(C(N)=O)CC2)cc1NC(=O)c1nsc2ccccc12` , what is it?
72

Same again, this time with CCC(C)S(=O)(=O)c1oc(-c2cccs2)nc1S(=O)(=O)c1ccccc1 (configuration not stated)
16

// repeat for `COc1cccc(NC(=O)Cn2c(=O)ccc3cc(S(=O)(=O)N4CCC(C)CC4)ccc32)c1` and report
73

Input COc1ccc(NC(=O)NC2COc3ccccc3C2)c(OC)c1 (configuration not stated)
88

Let us now turn to `CCCCn1c(Cc2ccccc2)nnc1SCC(=O)NC`
104

What about this compound? `C=C(C)Cn1c(SCC(=O)c2ccccc2)nc2sc3c(c2c1=O)CCCC3`
84

Another compound: `CCOC(=O)c1cc(S(=O)(=O)Nc2ccc(OC)c(Cl)c2)[nH]n1`
-6

Cool, now `CN1CCc2c(sc3nc(=S)[nH]c(N)c23)C1`
109

And the next one, `Cc1ccc(CSc2oc(-c3cccs3)nc2S(=O)(=O)c2ccc(C)cc2)cc1` ?
128

Another compound to look at: `CCOC(=O)CSc1nc2ccc(NC(=O)c3ccc(Cl)cc3)cc2s1`
90

// repeat for O=C(Nc1ccc(OC(F)(F)F)cc1)NC1COc2ccccc2C1 (configuration not stated) and report
-3

Item: `O=C(C1CCN(c2ncnc3c2nc2n3CCCCC2)CC1)N1CCN(c2ccccc2)CC1`
71

Please give the result for `COC(=O)c1ccccc1NC(=O)c1ccc(COc2cc(C)cc(C)c2)o1` too.
59

Try `Cc1cc(Nc2ccc(C(=O)O)c(O)c2)n2ncnc2n1` next.
72

Quick one: `CCCc1ccc(OCc2ccc(C(=O)Nc3ccccc3C(=O)OC)o2)cc1`
3

Field entry: `O=C(Nc1ccc(C(=O)N2CCN(c3ccc(Cl)cc3)CC2)cc1)c1nsc2ccccc12`
81

Try `Cc1ccc(N2CCN(C(=O)C3CCN(c4ncnc5c4nc4n5CCCCC4)CC3)CC2)c(C)c1` next.
55

Moving on to the next compound: `CCCCCS(=O)(=O)c1oc(-c2cccs2)nc1S(=O)(=O)c1ccc(C)cc1`
11

And for `O=C(Nc1ccc(C(=O)N2CCN(c3cccc(Cl)c3)CC2)cc1)c1nsc2ccccc12` ?
63

Input `O=c1c2sc3ccccc3c2n(Cc2ccccc2F)c(=O)n1CCc1ccccc1`
86

Check `O=C(NCc1ccccc1)C1CCN(c2ncnc3c2nc2n3CCCCC2)CC1` too.
82

Input `COC(=O)c1ccccc1NC(=O)c1ccc(COc2ccccc2Cl)o1`
68

And then `COCCCNC(=O)c1cc2cc(S(=O)(=O)N3CCCCC3)ccc2n1C` , what is it?
73

Same lookup for Cc1cccc(N2CCN(c3ncnc4c3nc3n4CCCCC3)CC2C)c1 (configuration not stated) , please.
75

And for `O=C(C1CCN(c2ncnc3c2nc2n3CCCCC2)CC1)N1CCN(c2ccc(Cl)cc2)CC1` ?
55

Follow-up entry: `CCOC(=O)c1c(-c2ccccc2)csc1NC(=O)c1cc(-c2cccc(OC)c2)on1`
72

Item: `O=C(C1CCN(c2ncnc3c2nc2n3CCCCC2)CC1)N1CCN(c2ccc(F)cc2)CC1`
-3

And for `O=C(Nc1ccc(C(=O)N2CCN(c3ccc(F)cc3)CC2)cc1)c1nsc2ccccc12` ?
55

And for `CCOC(=O)c1cc(S(=O)(=O)Nc2cc(OC)ccc2OC)[nH]n1` ?
123

Now this one: `Cc1ccc(C(=O)N2CCCCC2)cc1NC(=O)c1nsc2ccccc12`
-6

Next up: Cc1cccc(N2CCN(C(=O)C3CCN(c4ncnc5c4nc4n5CCCCC4)CC3)CC2C)c1 (configuration not stated)
1

Same again, this time with `COc1ccc(CNC(=O)Cc2ccc(NC(=O)N3CCSc4ncccc43)cc2)cc1OC`
75

Repeat for the following compound: CC1CCCCN1c1c(S(=O)(=O)c2ccc(Cl)cc2)cnc2ccccc12 (configuration not stated)
3

// same read-out, input: `CC(C)Cc1nn2c(=O)cc(COC(=O)c3ccc(NC(=O)c4cccs4)cc3)nc2s1`
127

What about `CCCSc1oc(-c2cccs2)nc1S(=O)(=O)c1ccc(C)cc1` ?
39

# repeat for `O=C(N/N=C1/SCC(=O)N1Cc1ccco1)c1ccccc1F`
97

And the next one, `O=C(NCCc1ccccc1)C1CCN(c2ncnc3c2nc2n3CCCCC2)CC1` ?
-4

Check `Cc1ccc(C(=O)N2CCC(C)CC2)cc1NC(=O)c1nsc2ccccc12` too.
80

Input `Cc1ccc(C)c(C(=O)COC(=O)CCCC(=O)Nc2cc(C(F)(F)F)ccc2Cl)c1`
45
